Experiment: basal MM1S mitochondrial membrane potential changes, profiling panel, cell-based, JC-1 fluorescence, 24 h, 100 nL compound (AID 1170); further: test concentration not given here
Conditions: higher = more signal
Each entry gets 0 if its z-score stays under -0.3, and 1 if its z-score is -0.3 or above.

Q: Tell me whether z-score is at least -0.3 here: `C=CCNC(=O)[C@H]1[C@@H]2C(=O)O[C@@H](c3ccccc3)[C@@H](c3ccccc3)N2[C@@H](c2ccccc2OCCO)[C@]12C(=O)Nc1ccc(C#CCCO)cc12`
Ans: 0

Q: Tell me whether z-score is at least -0.3 here: `COc1ccccc1CN1C(=O)c2ccccc2[C@@H](C(=O)NC2CC2)[C@@H]1c1ccc(CO)cc1`
Ans: 1

Q: Tell me whether z-score is at least -0.3 here: `COC(=O)C(CC#Cc1ccc2c(c1)[C@]1(C(=O)N2)[C@H](c2ccc(OCCO)cc2)N2[C@H](c3ccccc3)[C@H](c3ccccc3)OC(=O)[C@H]2[C@@H]1C(=O)N1CCc2cc(OC)c(OC)cc2C1)C(=O)OC`
Ans: 0

Q: Tell me whether z-score is at least -0.3 here: `Cc1ccc([C@@H]2C[C@@H](Sc3ccccc3)[C@H](C(=O)O)CN2S(=O)(=O)c2ccc(C)cc2)cc1`
Ans: 1

Q: Tell me whether z-score is at least -0.3 here: `COc1ccc(/C=C/C=O)cc1`
Ans: 1

Q: Tell me whether z-score is at least -0.3 here: `[N-]=[N+]=NCc1ccccc1C[C@]1(C(=O)N2CCCCC2)N=C(c2ccc(OCCCO)cc2)O[C@H]1c1ccccc1N=[N+]=[N-]`
Ans: 0

Q: Tell me whether z-score is at least -0.3 here: COc1cc2c(cc1O)C(C1CC1)N(Cc1sc3ccccc3c1Cl)CC2 (configuration not stated)
Ans: 0
